Reported values of molar heat capacity at constant pressure for individual entries
Experimental Protocol: molar heat capacity at constant pressure
Cond: 318.15 K; 101.33 kPa; Crystal; Small sample (50 mg) DSC
Give your result in J/K/mol as a bare value.

Known results for compounds:
compound=OC[C@H]1O[C@@H]2O[C@H]3[C@H](O)[C@@H](O)[C@@H](O[C@H]4[C@H](O)[C@@H](O)[C@@H](O[C@H]5[C@H](O)[C@@H](O)[C@@H](O[C@H]6[C@H](O)[C@@H](O)[C@@H](O[C@H]7[C@H](O)[C@@H](O)[C@@H](O[C@H]1[C@H](O)[C@H]2O)O[C@@H]7CO)O[C@@H]6CO)O[C@@H]5CO)O[C@@H]4CO)O[C@@H]3CO measured_result=1230.2
compound=O=C[C@H](O)[C@H](O)[C@H](O)CO measured_result=209
compound=O=C(CO)[C@@H](O)[C@H](O)[C@H](O)CO measured_result=247.3

Recorded result, `OC[C@H]1O[C@@](CO)(O[C@H]2O[C@H](CO)[C@@H](O)[C@H](O)[C@H]2O)[C@@H](O)[C@@H]1O` , molar heat capacity at constant pressure: 451

Measured molar heat capacity at constant pressure, O=C[C@H](O)[C@@H](O)[C@@H](O)[C@H](O)CO [(+)-galactose] : 229.4

Input O.OC[C@H]1O[C@@H](O[C@H]2[C@H](O)[C@@H](O)[C@@H](O)O[C@@H]2CO)[C@H](O)[C@@H](O)[C@H]1O [α-D-lactose hydrate] . Output molar heat capacity at constant pressure: 452.2

Quick note, molar heat capacity at constant pressure for `O=C[C@H](O)[C@@H](O)[C@H](O[C@H]1O[C@H](CO)[C@@H](O[C@H]2O[C@H](CO)[C@@H](O)[C@H](O)[C@H]2O)[C@H](O)[C@H]1O)[C@H](O)CO` landed at 683.9

Notebook: `O=CC[C@H](O)[C@H](O)CO` , molar heat capacity at constant pressure read as 184.1

Just so you know, measured molar heat capacity at constant pressure for OC[C@H]1OC(O)C[C@@H](O)[C@@H]1O (stereo not given in full) came out at 209
